Provide the reported GI50 of each item.
- Test system: MDA-MB-435
- Procedure text: NCI tumour cell line growth inhibition, 48 h
Active and inactive are the calls of the source. Cut-off read from the data, not from the text of the source: active = GI50 up to about 1.1 µM and inactive = higher.

Q: Supply reported GI50 belonging to this compound: "Cc1ccc(-[n+]2cc([O-])on2)cc1"
Ans: > 100 µM (inactive)

Q: Supply reported GI50 belonging to this compound: CCc1c(C)c(C#N)c(=S)n(C2OC(COC(C)=O)C(OC(C)=O)C(OC(C)=O)C2OC(C)=O)c1-c1ccccc1 (stereo not given)
Ans: > 31.6 µM (inactive)

Q: Supply reported GI50 belonging to this compound: "N/C(=N\Nc1ccc(C(=O)O)cc1)c1cnccn1"
Ans: > 100 µM (inactive)

Q: Supply reported GI50 belonging to this compound: "CC(=O)N/N=C1\NC(=O)C[C@H]2[C@@H]3CC=C4C[C@@H](OC(C)=O)CC[C@]4(C)[C@H]3CC[C@]12C"
Ans: 4.06 µM (inactive)

Q: Supply reported GI50 belonging to this compound: "O=[N+]([O-])C(=C1NCCN1)C(Cl)=C(Cl)Cl"
Ans: > 100 µM (inactive)

Q: Supply reported GI50 belonging to this compound: "O=c1[nH]c(Cc2ccccc2)nc2c1sc1nc3ccccc3n12"
Ans: > 100 µM (inactive)

Q: Supply reported GI50 belonging to this compound: "Cc1cccc2sc(NC(=O)c3cc([N+](=O)[O-])ccc3Cl)nc12"
Ans: 2.67 µM (inactive)

Q: Supply reported GI50 belonging to this compound: COc1ccc(C2SC(=N)Nc3c2c(C)nn3C(=O)c2ccc(Cl)cc2)cc1OC (stereo not given)
Ans: > 10 µM (inactive)

Q: Supply reported GI50 belonging to this compound: "c1ccc(CN2CCCN3CCN(CCCN(Cc4ccccc4)CC3)CC2)cc1"
Ans: 32.7 µM (inactive)

Q: Supply reported GI50 belonging to this compound: "COc1ccc(CCN2CCOCC2)cc1"
Ans: > 100 µM (inactive)

---

- Test system: K562
- Procedure text: NCI tumour cell line growth inhibition, 48 h
Active and inactive are the calls of the source. No stated cut-off is given here; in the data, active = GI50 up to about 1.1 µM and inactive = higher.
Pick from True for active, False for inactive when you respond.

Q: Answer briefly: the call reported for "O=C1C=CC(=O)c2c1ccc1c3ccccc3n(CCCCCCCCn3c4ccccc4c4ccc5c(c43)C(=O)C=CC5=O)c21" in this assay.
Ans: False

Q: Answer briefly: the call reported for CCOP(=O)(OCC)C1CC(C)OC1=O (configuration not stated) in this assay.
Ans: False

Q: Answer briefly: the call reported for "Nc1ncnc2oc(-c3cccs3)nc12" in this assay.
Ans: False

Q: Answer briefly: the call reported for "CC(=O)c1cccc(Nc2c3ccccc3nc3occc23)c1" in this assay.
Ans: False

Q: Answer briefly: the call reported for "CN(/N=C(\C(=O)O)c1ccccc1)C1=NCCCN1" in this assay.
Ans: False

Q: Answer briefly: the call reported for COC(=O)C(CCC1C=CCC1)/N=C\c1ccccc1 (configuration not stated) in this assay.
Ans: False

Q: Answer briefly: the call reported for COC(=O)C(C(=O)C(=O)Nc1cccc(OC)c1)c1cnc2ccccc2n1 (configuration not stated) in this assay.
Ans: False

Q: Answer briefly: the call reported for "Cc1[nH]nc(C(=O)N/N=C/c2ccccc2Cl)c1/N=N\N(C)C" in this assay.
Ans: True

Q: Answer briefly: the call reported for "NS(=O)(=O)c1nnc(NC(=O)c2cccc([N+](=O)[O-])c2)s1" in this assay.
Ans: False

Q: Answer briefly: the call reported for "O=C(/C=C/c1cc(O)c(O)cc1O)OCCc1ccccc1" in this assay.
Ans: False

Q: Answer briefly: the call reported for "CN(CCNC(=O)c1n[nH]c2c1ccc1ccccc12)CCNC(=O)c1n[nH]c2c1ccc1ccccc12" in this assay.
Ans: False

Q: Answer briefly: the call reported for "O=C(Nc1ccc(C(F)(F)F)cc1)NC(F)(F)F" in this assay.
Ans: False

The measurements presented in this section are drawn from ChEMBL document CHEMBL1201862.
